Numbers sourced from ChEMBL document CHEMBL1156076.

experiment: Cytotoxicity against human HuH7 cells; assay type: cell-based, Huh-7
Recorded Endpoint: CC50 (µM)
The answer is to be given in µM; state only the numeric part.

compound_string=NC(=S)Nc1cccc(OCCCCCCCCNC(=S)Nc2ccc(Br)cc2)c1 reported=18
compound_string=NC(=S)Nc1cccc(OCCCCCCCCNC(=S)Nc2ccc3[nH]ccc3c2)c1 reported=18
compound_string=NC(=S)Nc1cccc(OCCCCCN2CCN(c3ccc(C4CCCCC4)cc3)C2=O)c1 reported=12

Would you mind telling me what CC50 value was observed for "NC(=S)Nc1cccc(OCCCCCN2CCN(c3cccc4ccccc34)C2=O)c1" ?
15

Would you mind telling me what CC50 value was observed for "NC(=S)Nc1cccc(OCCCCCNC(=S)Nc2cc(Cl)cc(Cl)c2)c1" ?
18
